The values you see were collected from ChEMBL document CHEMBL5550090.

For each record, write down the corresponding Activity.
Target: Serine/threonine-protein kinase pim-1 (Homo sapiens)
Sequence (P11309 whole entry, looked up): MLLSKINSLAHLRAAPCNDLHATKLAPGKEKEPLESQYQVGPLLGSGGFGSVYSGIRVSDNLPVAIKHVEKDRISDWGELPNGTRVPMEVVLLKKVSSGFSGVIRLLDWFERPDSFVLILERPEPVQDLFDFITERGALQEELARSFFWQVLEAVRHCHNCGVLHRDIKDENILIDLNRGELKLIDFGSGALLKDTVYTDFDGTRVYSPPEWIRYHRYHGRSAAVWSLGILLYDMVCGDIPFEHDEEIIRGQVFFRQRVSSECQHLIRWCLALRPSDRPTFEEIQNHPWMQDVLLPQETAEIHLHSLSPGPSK
Test: Inhibition of human recombinant PIM-1 expressed in bacteria assessed as enzyme residual activity using histone H1 as substrate at 1 uM incubated for 30 mins in presence of ATP by ADP-Glo kinase assay
Answers are plain numbers, in %.

> print(dat)
                      compoundsmiles  valueunit  assayresult
1  c1ccc(-c2c[nH]c3cc4cnccc4cc23)cc1          %           53
2           Clc1c[nH]c2cc3cnccc3cc12          %           63
3         ON=Cc1c[nH]c2cc3cnccc3cc12          %           43
4          N#Cc1c[nH]c2cc3cnccc3cc12          %          100
5          CNCc1c[nH]c2cc3cnccc3cc12          %           89

# map each molecule to its Activity
1. Ic1c[nH]c2cc3cnccc3cc12
2. Brc1c[nH]c2cc3cnccc3cc12
3. Nc1cc2cc3ccncc3cc2[nH]1
4. c1cc2cc3cc[nH]c3cc2cn1
5. CCN(CC)Cc1c[nH]c2cc3cnccc3cc12

Result:
[50, 48, 100, 90, 65]
